Value source: the kinase profiling compilation of Christmann-Franck et al. (2016)

Could you please report measured inhibition for the items listed next?
- test-target: PTK6 (human) (UniProt Q13882)
- Sequence (Q13882 whole entry, looked up): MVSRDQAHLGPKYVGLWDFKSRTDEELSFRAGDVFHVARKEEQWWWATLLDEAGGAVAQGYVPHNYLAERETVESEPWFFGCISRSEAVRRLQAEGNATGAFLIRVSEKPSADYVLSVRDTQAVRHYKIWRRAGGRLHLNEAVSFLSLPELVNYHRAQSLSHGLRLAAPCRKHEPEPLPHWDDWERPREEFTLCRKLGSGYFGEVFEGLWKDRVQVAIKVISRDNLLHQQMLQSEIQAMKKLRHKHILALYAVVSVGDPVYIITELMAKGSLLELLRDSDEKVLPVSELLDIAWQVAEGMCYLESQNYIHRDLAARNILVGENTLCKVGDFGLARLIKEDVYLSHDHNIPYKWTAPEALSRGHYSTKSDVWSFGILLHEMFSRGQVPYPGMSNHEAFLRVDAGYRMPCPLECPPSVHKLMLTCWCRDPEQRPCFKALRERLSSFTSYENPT
- experimental-details: Caliper, Mobility shift assay off-chip
- applied-conditions: compound 0.02 µM
Entry rule: numbers only, all in %.

stdin: Which inhibition is listed for CNC(=O)c1ccccc1Sc1ccc2c(/C=C/c3ccccn3)n[nH]c2c1 ?
stdout: -4.8

stdin: Look up inhibition: CNC(=O)c1cc(Oc2ccc(NC(=O)Nc3ccc(Cl)c(C(F)(F)F)c3)cc2)ccn1
stdout: -0.9

stdin: Record request: inhibition value, item Cc1ccc(Nc2nccc(N(C)c3ccc4c(C)n(C)nc4c3)n2)cc1S(N)(=O)=O
stdout: 2.5

* * *

What inhibition was measured for each of the following?
- test-target: TNK2 (human) (UniProt Q07912)
- Sequence (Q07912 whole entry, looked up): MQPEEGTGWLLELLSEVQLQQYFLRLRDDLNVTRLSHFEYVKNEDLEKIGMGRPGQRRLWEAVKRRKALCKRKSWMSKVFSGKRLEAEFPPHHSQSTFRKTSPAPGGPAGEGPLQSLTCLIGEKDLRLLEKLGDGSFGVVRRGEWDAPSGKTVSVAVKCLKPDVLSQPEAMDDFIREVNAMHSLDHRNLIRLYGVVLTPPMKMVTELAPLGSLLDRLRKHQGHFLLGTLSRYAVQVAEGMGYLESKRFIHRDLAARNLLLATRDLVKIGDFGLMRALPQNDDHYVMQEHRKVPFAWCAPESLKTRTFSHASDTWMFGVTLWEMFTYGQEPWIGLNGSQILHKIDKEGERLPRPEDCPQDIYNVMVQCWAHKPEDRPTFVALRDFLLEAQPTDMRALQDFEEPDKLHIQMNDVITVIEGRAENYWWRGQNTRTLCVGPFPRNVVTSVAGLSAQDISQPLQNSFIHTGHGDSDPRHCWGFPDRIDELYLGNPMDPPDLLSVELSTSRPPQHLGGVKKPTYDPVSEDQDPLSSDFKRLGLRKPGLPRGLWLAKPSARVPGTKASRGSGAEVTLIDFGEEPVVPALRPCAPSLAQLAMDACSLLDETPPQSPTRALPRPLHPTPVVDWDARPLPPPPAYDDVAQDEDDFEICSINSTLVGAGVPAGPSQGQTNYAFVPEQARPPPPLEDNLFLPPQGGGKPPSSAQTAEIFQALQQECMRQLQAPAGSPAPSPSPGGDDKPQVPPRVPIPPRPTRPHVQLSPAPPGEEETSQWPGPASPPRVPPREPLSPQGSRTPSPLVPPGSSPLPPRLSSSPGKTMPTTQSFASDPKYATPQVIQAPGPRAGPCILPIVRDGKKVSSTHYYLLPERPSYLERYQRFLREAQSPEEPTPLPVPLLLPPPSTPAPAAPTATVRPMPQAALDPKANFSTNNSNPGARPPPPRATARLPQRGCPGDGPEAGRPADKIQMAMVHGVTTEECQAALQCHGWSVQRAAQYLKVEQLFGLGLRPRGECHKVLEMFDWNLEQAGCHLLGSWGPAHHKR
- experimental-details: Caliper, Mobility shift assay off-chip
- applied-conditions: compound 0.2 µM
Only the number, expressed in %, is required.

stdin: Using the record for CCN(CC)CCNC(=O)c1c(C)[nH]c(/C=C2\C(=O)Nc3ccc(F)cc32)c1C , report its inhibition.
stdout: 13.6

stdin: For the compound COc1cc2c(Oc3ccc4[nH]c(C)cc4c3F)ncnc2cc1OCCCN1CCCC1 , what inhibition is on record?
stdout: -5.4

stdin: Give the measured inhibition of Cc1ccc(Nc2nccc(N(C)c3ccc4c(C)n(C)nc4c3)n2)cc1S(N)(=O)=O .
stdout: -3.6
